Each entry below carries its recorded Kd.
Target: human CA-IX (Homo sapiens)
Construct: purchased Acro CA9-H82E3
Assay: Surface Plasmon Resonance (SPR) binding kinetics to recombinant human CA-IX (Biacore 8K, single-cycle kinetics, 1:1 binding model)
Settings: Chelated Metal: Lu-175; SPR, 25° C., pH 7.4; read-out: CAIX KD

{"columns": ["compound", "Kd"],
 "data": [
  ["N[C@@H](CC(=O)N[C@@H](CC(=O)N1CCN(C(=O)CN2CCN(CC(=O)O)CCN(CC(=O)O)CCN(CC(=O)O)CC2)C[C@H]1C(=O)NCCn1cc(C23CC(C(=O)Nc4nnc(S(N)(=O)=O)s4)(C2)C3)nn1)C(=O)O)C(=O)O.[Lu+3] [Compound 109.13]", "< 1 nM"],
  ["NS(=O)(=O)c1nnc(NC(=O)C23CCC(c4cn(CCNC(=O)[C@@H]5CN(C(=O)CN6CCN(CC(=O)O)CCN(CC(=O)O)CCN(CC(=O)O)CC6)CCN5C(=O)CC[C@H](NC(=O)C[C@H](NC(=O)c5n[nH]c6ccc(O)cc56)C(=O)O)C(=O)O)nn4)(CC2)CC3)s1.[Lu+3] [Compound 109.45]", "< 1 nM"]
]}

Each recorded value in this set is attributed to patent US20260325685A1.
